This collection of values is drawn from patent US20070184519A1.

biological target: DRB1*0401 (human, UniProt P01903 26-216, limits assumed); test: competition vs 125I probe peptide, purified MHC II
This section presents binders with their documented IC50 values.

# BINDER, IC50, nM
data = [
    ("DTFRKLFRVYSNFGR", 50),
    ("DTPRKLFRVYSNFLR", 40),
    ("DTFRKNFRVYSNFLR", 91),
    ("DTGRKLFRVYSNFLR", 46),
]
